For each entry below, report its Kd value.
# TARGET OF ASSAY: p62 ZZ domain (aa 115-190) (human, UniProt Q13501 115-190)
# EXPERIMENT SUMMARY: MST
Answers are plain numbers, in nM.

- BINDER: "REEE [REEE peptide]"
  ASSAY RESULT: 1900

Next:
Which Kd is reported for this binder? RAEE [RAEE peptide]
3200
